- Measured on: LAP2, Q96RT1
- Sequence (Q96RT1 other isoform, or with tags, fused parts or gaps): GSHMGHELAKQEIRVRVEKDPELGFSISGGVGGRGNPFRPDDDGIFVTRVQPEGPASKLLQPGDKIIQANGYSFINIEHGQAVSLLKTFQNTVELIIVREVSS
- Procedure summary: holdup assay
- Design: key: below the threshold = too weak to quantify, mostly under pKd 3.1 to 4
- Conditions used: plain residues with an end cap or a label only (N-terminal biotin on a linker: ado-ado)
Property: pKd

> print(dat)
                             binder  property               result
 1       LESTTVGTSV [KARS1, Q15046]       pKd                 3.92
 2      TGLWKHETTV [ADGRA3, Q8IWK6]       pKd                 4.32
 3       RSSGGDDFWF [KCNV1, Q6PIU1]       pKd  below the threshold
 4      NTANRRTTPV [CACNG2, Q9Y698]       pKd  below the threshold
 5     VKRNSKETVV [MARCHF3, Q86UD3]       pKd                 3.54
 6         PYPTADHMLA [JUP, P14923]       pKd  below the threshold
 7     PSHPRLQTHV [KIRREL2, Q6UWL6]       pKd  below the threshold
 8     IDESKKEWLI [CNTNAP2, Q9UHC6]       pKd  below the threshold
 9       ELSATVTTDC [TRIP6, Q15654]       pKd  below the threshold
10     PTPDLPQTRV [KLHDC7A, Q5VTJ3]       pKd  below the threshold
11     RFQQRMQTHV [KIRREL1, Q96J84]       pKd  below the threshold
12       NISYRRESAI [KCNJ4, P48050]       pKd  below the threshold
13        KPGKGSETVV [FZD4, Q9ULV1]       pKd  below the threshold
14       PPGKHLVTEV [KCNA7, Q96RP8]       pKd                 4.39
15     LKDDELKTKL [SLCO1A2, P46721]       pKd  below the threshold
16  PSVGSKKTVL [REELD1, A0A1B0GV85]       pKd  below the threshold
17       ILRKSTTTTV [PRR16, Q569H4]       pKd  below the threshold
18      AAVENKVTDL [PLXNB1, O43157]       pKd                 3.54
19     ARESQKVSHV [FAM110B, Q8TC76]       pKd                 3.66
20       DTKNYKQTSV [CRIPT, Q9P021]       pKd                 4.32
21       KKMLQRRTLL [OR8G1, Q15617]       pKd  below the threshold
22      TISFTQTSQF [SLC1A1, P43005]       pKd  below the threshold
23     SFISKKEWYV [NECTIN1, Q15223]       pKd  below the threshold
24       ARSAAASNYV [CLDN4, O14493]       pKd  below the threshold
25         EPQYQPGENL [SRC, P12931]       pKd  below the threshold
26      QSYPSKHDYV [CLDN18, P56856]       pKd  below the threshold
27       QLSFNTDTLC [ABCA2, Q9BZC7]       pKd  below the threshold
28        DRIQSCLSDA [SBF1, O95248]       pKd  below the threshold
29        LAHVKHKEQI [AQP3, Q92482]       pKd  below the threshold
30       REEPDHSTEV [CCRL2, O00421]       pKd                 4.15
31       AEASVACSLC [PTGIR, P43119]       pKd  below the threshold
32       EIPAQSPTCV [FZD10, Q9ULW2]       pKd                 3.73
